Would you mind telling me the reported Activity of soybean GST enzyme, Chlorimuron Ethyl of each entry?
assay: GST conjugation activity with chlorimuron ethyl (HPLC); assay type: biochemical; conditions: 0.4 mM electrophilic substrate, 4 mM glutathione, 0.1 M MOPS pH 7.0, corrected for uncatalyzed reaction
The response must be a number in nmol/min/mg with no trailing unit.

### Prompt Recorded Activity of soybean GST enzyme, Chlorimuron Ethyl of se6.pk0037.h4: soybean type III GST encoded by cDNA insert in clone se6.pk0037.h4, expressed in E. coli (protein) MAATQEDVTLLGVVGSPFVCRVQIALKLKGIECKFLEENLANKSDLLLKSNPVYKKVPVFIHNEKPIAESLVIVEYIDETWKNNPILPSDPYQRSFARFWSKFIDDKIVGASWKSVFTVDEKEREKNVEESLEALQFLENELQDKRFFGGDEFGFVDIAGVFIAFSIPIFQEVAGLQLFTSEKFPKLFKWSQELINHPVVKDVLPPREPLFAFFKSLYESLSASK , please.
### Response 0.1

### Prompt Recorded Activity of soybean GST enzyme, Chlorimuron Ethyl of ssl.pk0002.f7: soybean type III GST encoded by cDNA insert in clone ss1.pk0002.f7 (protein) MADGVVLLDTWASMFGMRVRIALAEKGVEYEYKEENLRNKSPLLLQMNPIHKKIPVLIHNGKPICESAIIVQYIDEVWNDKAPILPSDPYERAQARFWVDYIDKKVYDTWRKMWLSKGEEHEAGKKEFISIFKQLEETLSDKAYYGSDTFGFLDIGLIPFYSWFYTFETYGNFKMEEECPKLVAWAKRCMQREAVSKSLS , please.
### Response 0.9

### Prompt Recorded Activity of soybean GST enzyme, Chlorimuron Ethyl of se6.pk0048.d7: soybean type III GST encoded by cDNA insert in clone se6.pk0048.d7 (protein) MADEVVLLDFWPSPFGMRVRIALAEKGIKYESKEEDLQNKSPLLLKMNPVHKKIPVLIHNGKPICESLVAVQYIEEVWNDRNPLLPSDPYQRAQARFWADFVDNKIFDLGRKIWTSKGEEKEAAKKEFIEALKLLEEQLGDKTYFGGDDLGFVDIALIPFDTWFKTFGSLNIESECPKFVAWAKRCLQKDSVAKSLPDQHKVYEFIMDIRKKFDIE , please.
### Response 0.5

### Prompt Recorded Activity of soybean GST enzyme, Chlorimuron Ethyl of ssl.pk0020.b10: soybean type III GST encoded by cDNA insert in clone ss1.pk0020.b10 (protein) MAEQDKVILHGMWASPYAKRVELALNFKGIPYEYVEEDLRNKSDLLLKYNPVHKKVPVLVHNGKAIAESMVILEYIDETWKDGPKLLPSDSYKRAQARFWCHFIQDQLMESTFLVVKTDGEAQQKAIDHVYEKLKVLEDGMKTYLGEGNAIISGVENNFGILDIVFCALYGAYKAHEEVIGLKFIVPEKFPVLFSWLMAIAEVEAVKIATPPHEKTVGILQLFRLSALKSSSATE , please.
### Response 0.1

### Prompt Recorded Activity of soybean GST enzyme, Chlorimuron Ethyl of ssm.pk0067.g5: soybean type III GST encoded by cDNA insert in clone ssm.pk0067.g5 (protein) MASYHEEEVRLLGKWASPFSNRVDLALKLKGVPYKYSEEDLANKSADLLKYNPVHKKVPVLVHNGNPLPESLIIVEYIDETWKNNPLLPQDPYERALARFWSKTLDDKILPAIWNACWSDENGREKAVEEALEALKILQETLKDKKFFGGESIGLVDIAANFIGYWVAILQEIAGLELLTIEKFPKLYNWSQDFINHPVIKEGLPPRDELFAFFKASAKK , please.
### Response 0.1

### Prompt Recorded Activity of soybean GST enzyme, Chlorimuron Ethyl of GST-A: soybean type III GST encoded by cDNA insert in clone GSTa (protein) MSDEVVLLDFWPSPFGMRVRIALAEKGIKYEYKEEDLRNKSPLLLQMNPVHKKIPVLIHNGKPICESLIAVQYIEEVWNDRNPLLPSDPYQRAQTRFWADYVDKKIYDLGRKIWTSKGEEKEAAKKEFIEALKLLEEQLGDKTYFGGDNLGFVDIALVPFYTWFKAYETFGTLNIEECPKFIAWAKRCLQKESVAKSLPDQQKVYEFIMDLRKKLGIE , please.
### Response 0.5

### Prompt Recorded Activity of soybean GST enzyme, Chlorimuron Ethyl of se1.pk0017.f5: soybean type IV GST encoded by cDNA insert in clone se1.pk0017.f5 (protein) MASLGVRPVLPPPLTSISDPPPLFDGTTRLYISYSCPYAQRVWIARNYKGLQDKINLVPINLQDRPAWYKEKVYPENKVPSLEHNGKVLGESLDLIKYVDANFEGTPLFPSDPAKKEFGEQLISHVDTFSKDLFVSLKGDAVQQASPAFEYLENALGKFDDGPFLLGQFSLVDIAYIPFVERFQIVFAEVFKHDITEGRPKLATWFEELNKLNAYTETRVDPQEIVDLFKKRFLPQQ , please.
### Response 0.0

### Prompt Recorded Activity of soybean GST enzyme, Chlorimuron Ethyl of se3.03b09: soybean type III GST encoded by cDNA insert in clone se3.03b09 (protein) MSKSEDLKLLGGWFSPFALRVQIALNLKGLEYEVVEETLNPKSDLLLKSNPVHKKIPVFFHGDKVICESAIIVEYIDEAWTNVPSILPQNAYDRANARFWFAYIDEKWFTSLRSVLVAEDDEAKKPHFEQAEEGLERLEEVFNKYSEGKAYFGGDSIGFIDIGFGSFLSWMRVIEEMSGRKLLDEKKHPGLTQWAETFAADPAVKGILPETDKLVEFAKILQLKWTAAAAAAAK , please.
### Response 4.4

### Prompt Recorded Activity of soybean GST enzyme, Chlorimuron Ethyl of se1.27b04: soybean type I GST encoded by cDNA insert in clone se1.27b04 (protein) MICLHEKEVDFELVPVNVFAAEHKQPPFLSKNPFGFIPVLEDGDLTLFESRAITAYVAEKFKETEPDLIRHKDAKEAALVKVWTEVESHYYEPAVSPIIYEYFVAPFQGKEPDKSVIDTNVEKLKTVLDVYEAKLSSTKYLAGDFYSLADLSHVSETHYLMQTPCASMINELPHVKAWWEDISSRPAFNKVVGGMSFGQNH , please.
### Response 0.1

The measured values listed here are drawn from patent US6168954A.
